Molecular target: Beta-adrenergic receptor kinase 1 (Homo sapiens)
Assay: GRK2 binders displacing RNA aptamer, biochemical, validation, human GRK2, bead flow cytometry (AID 488806)
Details: bead-bound GRK2, FAM-aptamer displacement, at 10 µM, stronger effect = higher value
For each record, write down the corresponding aptamer binding inhibition.
One number for each entry, in %.

Worked cases, answers included:
# MOLECULE, aptamer binding inhibition (%)
rows = [
    ("CCOc1ccc(NC(=O)N[C@@H](CCSC)C(=O)OC)cc1", 1),
    ("O=c1ccn([C@@H]2O[C@H](CO)[C@@H](O)[C@H]2O)c(=O)[nH]1", 3),
    ("COC(=O)c1ccccc1OCCOCCOc1cccc2ccc(C)nc12", 2),
    ("CCC(=O)c1ccc(O)cc1", 3),
    ("CC(C)=CCCC(C)CN1CCC(N2CCC(C(=O)N3CCCC3)CC2)CC1 (centres undefined)", -12),
]

Kindly give each listed record's aptamer binding inhibition.
1. COc1ccc2oc(=O)c(-c3nc(C)cs3)cc2c1
2. O=C(NCCc1cccc(F)c1)[C@@H]1CSC2c3ccccc3C(=O)N21 (some centres undefined)
3. CC(C)OC(=O)CC1C(=O)NCCN1C(=S)NC(=O)c1cccs1 (centres undefined)
4. COc1ccc2[nH]c(C)c(CN3CCC(C)CC3)c(=O)c2c1

Found:
1. 6
2. 5
3. -2
4. 2

====

Assay: RPL19A-GFP modulators, yeast TOR pathway, confirmation, cell-based, S. cerevisiae, flow cytometry, cherry picks, mother/daughter gates (AID 2270)
Conditions: S. cerevisiae RPL19A-GFP strain, 3 h, measured here: daughter cell gate, at 10 µM, stronger effect = lower value, 100 = same GFP as DMSO wells
For each record, write down the corresponding GFP response vs DMSO.
Numbers only, in %.

# SMILES TEXT, ASSAY VALUE
measured = [
    ("Cc1c([N+](=O)[O-])cnc(Sc2ccccc2)c1[N+](=O)[O-]", 96.9),
]

Kindly give each listed record's GFP response vs DMSO.
1. CCn1c(=O)c(C(=O)Nc2ccccc2C)c(O)c2ccccc21
2. COC(=O)c1ccc(CS(=O)(=O)c2ccc(F)cc2)o1

Found:
1. 98.1
2. 98.1

====

Assay: modulators of CIT2-GFP expression in yeast, primary screen, S. cerevisiae, GFP fusion, multiplex flow cytometry (AID 1870);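 note: barcoded CIT2-GFP strain pooled with four other GFP strains with rapamycin as positive control; median GFP fluorescence per well over plate mean of DMSO wells so 100% = DMSO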
Settings: 3 h, at 10 µM
Calls of active or inactive are those of the source.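 Rule for the calls: active = percent response above a set limit, the screen-wide mean plus 3 SD (cut at about 130% in these data); inactive = the rest.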
Select the matching outcome among T (active), F (inactive)

Recorded results for 5 compounds are shown here.
# COMPOUND, CLASSIFICATION
records = [
    ("COC(=O)c1[nH]c2ccccc2c1NC(=O)CN1CCN(C/C=C/c2ccccc2)CC1", "F"),
    ("C[N+]12CCC(CC1)C(OC(=O)C(O)(c1ccccc1)c1ccccc1)C2 (stereo not drawn)", "F"),
    ("NCCOc1ccccc1OCCN", "F"),
    ("CN(CCCN1CCOCC1)Cc1cn(C)nc1-c1ccccc1F", "F"),
    ("COc1ccc(CCN(C)CCCC(C#N)(c2ccc(OC)c(OC)c2)C(C)C)cc1OC (stereo not drawn)", "F"),
]

Lookup: Fill in: this test's call for COc1ccc(CCNC(=O)C(=O)Nc2ccc3c(c2)OCO3)cc1OC is ___
Found: F

Lookup: Fill in: this test's call for CC(=O)[C@@]1(O)CC[C@H]2[C@@H]3CCC4=CC(=O)CC[C@]4(C)[C@H]3CC[C@@]21C is ___
Found: T

Lookup: Fill in: this test's call for COc1ccc(C2NC(=O)c3ccccc3N2)cc1OC (stereo not drawn) is ___
Found: F

Lookup: Fill in: this test's call for COC(=O)c1cc(=O)c2ccc(OC)cc2o1 is ___
Found: F

====

Biological target: Integrin beta-1 (Homo sapiens) + Integrin alpha-4 (Homo sapiens) (UniProt P13612+P05556)
Sequence (P05556 whole entry, looked up): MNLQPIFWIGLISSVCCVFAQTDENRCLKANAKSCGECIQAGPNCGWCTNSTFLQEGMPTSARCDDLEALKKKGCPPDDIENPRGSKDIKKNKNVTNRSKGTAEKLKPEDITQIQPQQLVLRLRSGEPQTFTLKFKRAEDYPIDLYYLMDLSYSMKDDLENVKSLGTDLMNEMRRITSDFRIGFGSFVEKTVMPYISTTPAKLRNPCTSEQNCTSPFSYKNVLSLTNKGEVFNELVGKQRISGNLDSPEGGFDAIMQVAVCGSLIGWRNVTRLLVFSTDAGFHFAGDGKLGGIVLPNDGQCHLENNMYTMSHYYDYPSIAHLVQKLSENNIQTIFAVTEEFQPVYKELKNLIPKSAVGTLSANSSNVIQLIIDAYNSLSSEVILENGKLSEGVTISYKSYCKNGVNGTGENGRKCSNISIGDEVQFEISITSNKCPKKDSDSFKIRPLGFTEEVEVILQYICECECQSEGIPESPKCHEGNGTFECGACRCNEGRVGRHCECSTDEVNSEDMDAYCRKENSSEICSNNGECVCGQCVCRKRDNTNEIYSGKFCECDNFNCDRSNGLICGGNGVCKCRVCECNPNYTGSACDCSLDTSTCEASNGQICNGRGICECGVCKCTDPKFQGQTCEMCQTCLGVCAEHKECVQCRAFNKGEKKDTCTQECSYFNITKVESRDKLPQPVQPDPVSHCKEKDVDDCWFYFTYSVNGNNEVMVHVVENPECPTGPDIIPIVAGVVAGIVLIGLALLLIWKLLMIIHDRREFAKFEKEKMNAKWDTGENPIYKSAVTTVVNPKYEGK
Sequence (P13612 whole entry, looked up): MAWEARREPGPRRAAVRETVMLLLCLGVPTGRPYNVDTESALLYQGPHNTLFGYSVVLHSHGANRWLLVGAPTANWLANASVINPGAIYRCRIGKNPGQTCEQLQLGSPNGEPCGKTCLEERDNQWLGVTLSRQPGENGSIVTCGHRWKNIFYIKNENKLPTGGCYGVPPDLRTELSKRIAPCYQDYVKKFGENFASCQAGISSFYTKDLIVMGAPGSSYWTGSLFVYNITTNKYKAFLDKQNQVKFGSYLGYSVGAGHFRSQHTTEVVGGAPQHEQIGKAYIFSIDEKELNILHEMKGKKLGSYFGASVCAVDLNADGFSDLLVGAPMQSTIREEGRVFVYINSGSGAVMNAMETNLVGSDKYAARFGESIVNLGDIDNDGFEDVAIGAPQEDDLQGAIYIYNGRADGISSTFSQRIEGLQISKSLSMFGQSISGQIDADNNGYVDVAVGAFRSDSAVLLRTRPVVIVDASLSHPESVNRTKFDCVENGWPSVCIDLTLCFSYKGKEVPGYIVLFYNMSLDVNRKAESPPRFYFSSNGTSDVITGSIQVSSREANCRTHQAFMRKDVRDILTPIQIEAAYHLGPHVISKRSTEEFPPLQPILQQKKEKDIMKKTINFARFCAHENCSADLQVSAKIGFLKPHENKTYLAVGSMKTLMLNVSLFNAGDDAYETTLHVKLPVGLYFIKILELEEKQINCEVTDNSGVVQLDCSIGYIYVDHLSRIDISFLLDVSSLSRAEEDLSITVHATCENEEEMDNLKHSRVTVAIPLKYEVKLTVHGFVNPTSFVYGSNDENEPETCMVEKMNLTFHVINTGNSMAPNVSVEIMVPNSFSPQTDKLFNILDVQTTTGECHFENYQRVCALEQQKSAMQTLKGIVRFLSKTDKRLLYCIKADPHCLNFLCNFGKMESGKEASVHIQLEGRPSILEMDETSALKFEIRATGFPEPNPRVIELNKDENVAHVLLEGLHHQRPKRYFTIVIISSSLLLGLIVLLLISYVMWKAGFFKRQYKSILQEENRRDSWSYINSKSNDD
Experiment: inhibition of HUTS-21 binding to VLA-4, pilot screen, VLA-4 allosteric modulator project, U937 cells, HUTS-21 mAb, flow cytometry, validation set (AID 2674);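 note: antibody binding induced by the VLA-4 ligand LDV present at three times its Kd; 0% = LDV ligand with antibody and no compound and 100% = antibody without LDV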
Details: HUTS-21 LIBS mAb binding, at 6.7 µM, stronger effect = higher value, binding induced by LDV ligand
Calls of active or inactive are those of the source.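 Rule for the calls: active = inhibition above 50%, about 3 SD of the validation set; inactive = the rest.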
For each record, write down the corresponding inhibition.

Worked cases, answers included:
# MOLECULE, STUDY SYSTEM, inhibition
data = [
    ("O=C(/C=C/c1ccco1)NCc1ccc2c(c1)OCO2", "Integrin beta-1 (Homo sapiens) + Integrin alpha-4 (Homo sapiens) (UniProt P13612+P05556)", "-3.16% (inactive)"),
    ("CC(C)c1ccccc1OCCNC(=S)NC(=O)c1cccnc1", "Integrin beta-1 (Homo sapiens) + Integrin alpha-4 (Homo sapiens) (UniProt P13612+P05556)", "22.8% (inactive)"),
    ("CC(C(=O)O)c1ccc(N2Cc3ccccc3C2=O)cc1 (stereo not drawn)", "Integrin beta-1 (Homo sapiens) + Integrin alpha-4 (Homo sapiens) (UniProt P13612+P05556)", "-7.47% (inactive)"),
    ("CC(C)NC(=O)C1(c2ccccc2)CCOCC1", "Integrin beta-1 (Homo sapiens) + Integrin alpha-4 (Homo sapiens) (UniProt P13612+P05556)", "-51.5% (inactive)"),
]

Kindly give each listed record's inhibition.
1. NS(=O)(=O)c1cc2c(cc1Cl)NC(CSCc1ccccc1)=NS2(=O)=O
2. CC(=O)OCC(=O)C1=CCC2C3CCC4=CC(=O)C=CC4(C)C3(F)C(OC(C)=O)CC12C (stereo not drawn)
3. Cn1c(=O)[nH]c(=O)c2c1nc(Br)n2CCCO
4. CCCCNc1cc(C(=O)O)cc(S(N)(=O)=O)c1Oc1ccccc1

Found:
1: -6.15% (inactive); 2: 6.29% (inactive); 3: 6.29% (inactive); 4: 16.6% (inactive)

Kindly give each listed record's inhibition.
1. O=c1[nH]cnc2c1ncn2[C@@H]1O[C@H](CO)[C@@H](O)[C@H]1O
2. Nc1cccc2nc3ccccc3cc12
3. c1ccc2c3c(c(CN4CCCCC4)cc2c1)COC3
4. O=c1nc2cccc3c2=c(/c1=C(\O)c1ccccc1)c1ccccc1c3=O
5. CCN1C(=O)C(CC(=O)Nc2ccc(F)cc2)N(Cc2ccc3c(c2)OCO3)C1=S (stereo not drawn)
6. CCOc1ccccc1Oc1coc2cc(OCC(=O)O)ccc2c1=O

Found:
1: -15.6% (inactive); 2: 9.1% (inactive); 3: -8.64% (inactive); 4: -23.6% (inactive); 5: 7.76% (inactive); 6: 1.44% (inactive)

====

For each record, write down the corresponding GFP response, % of DMSO.
Test: AGP1-GFP expression modulators, hit retest, confirmation, cell-based, flow cytometry, S. cerevisiae, cherry picks (AID 2273);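 note: median GFP channel fluorescence over the whole cell population gate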
Settings: S. cerevisiae AGP1-GFP strain, 3 h, at 10 µM
Numbers only, in %.

Worked cases, answers included:
# COMPOUND, READOUT, UNITS OF MEASURE, ASSAY VALUE
rows = [
    ("C/C(=N/NC(=O)c1ccc(C(C)(C)C)cc1)c1ccccn1", "GFP response, % of DMSO", "%", 90),
    ("Cc1cc(OCC(=O)Nc2ccc(S(=O)(=O)N3CCN(C)CC3)cc2)ccc1Br", "GFP response, % of DMSO", "%", 106),
    ("Cc1cc(C)c(S(=O)(=O)ON2C(=O)c3ccccc3C2=O)cc1C", "GFP response, % of DMSO", "%", 97.5),
    ("Cc1ncc2c(n1)-c1cc(F)ccc1SC2", "GFP response, % of DMSO", "%", 94.5),
    ("O=c1c2c(-c3ccc(Cl)cc3)csc2ncn1/N=C/c1cccc([N+](=O)[O-])c1O", "GFP response, % of DMSO", "%", 96.2),
    ("Cc1ccc(-n2nc(C)c3c(C)c(CCC(=O)O)c(C)nc32)cc1", "GFP response, % of DMSO", "%", 100),
]

Kindly give each listed record's GFP response, % of DMSO.
1. COc1ccc(NC(=O)COC(=O)c2ccco2)c([N+](=O)[O-])c1
2. CCOC(=O)c1cc(-c2ccc(/C=C3/C(=O)NC(=O)C(C#N)=C3C)o2)ccc1Cl
3. O=C(O)CSC1CC(=O)N(c2cccc(Cl)c2)C1=O (stereo not drawn)
4. O=C(Nc1nc(-c2ccccc2)cs1)c1ccc(Br)o1
5. O=C(COC(=O)c1n[nH]c2ccccc12)c1ccc(F)c(F)c1
6. CN(C)c1ccc(N=Cc2nc(-c3ccccc3)oc2OC(=O)c2cccc(Cl)c2)cc1
7. CCCN(c1ccccc1F)S(=O)(=O)c1cc(-c2cc(C)no2)ccc1OC

Found:
98.9
104
101
94.9
97
98.7
95.6

Kindly give each listed record's GFP response, % of DMSO.
1. O=C(Sc1cccc2cccnc12)c1ccccc1Br
2. O=C(N/N=C/c1ccc(F)cc1)c1ccc(Br)cc1
3. Oc1ccc(-c2nc3ccccn3c2NCc2ccco2)cc1
4. COc1ccc(-c2noc(-c3cccc(Cl)c3)n2)cc1OC
5. CCc1c2ccccc2nn1-c1ccccc1C(=O)C(C)=O

Found:
[95.8, 99.6, 96.2, 96.2, 100]
